Each recorded value in this set is attributed to paper PMC7819943.

Target: OsWRKY34 (Oryza sativa, UniProt Q0JBA9 1-250)
Sequence (Q0JBA9 entry or part of it): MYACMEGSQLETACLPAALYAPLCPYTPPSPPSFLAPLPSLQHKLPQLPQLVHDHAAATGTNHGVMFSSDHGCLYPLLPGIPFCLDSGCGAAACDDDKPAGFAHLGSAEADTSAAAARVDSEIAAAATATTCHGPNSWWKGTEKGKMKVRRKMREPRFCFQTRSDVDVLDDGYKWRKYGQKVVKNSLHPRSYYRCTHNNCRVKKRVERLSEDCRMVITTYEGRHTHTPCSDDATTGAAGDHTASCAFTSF
Assay: protein-binding microarray (RPBM); PBS, 2% BSA, 51.3 ng/ul salmon testes DNA, 50 uM zinc acetate, 200 nM TF, 25 C, 1 h; high values mean tight binding
Settings: protein: recombinant; tags: N-terminal polyhistidine and DsRed monomer fusion (pET32a); label: CyDye5-dUTP incorporated in the synthesized complementary strand; 3' TTTTT single-stranded linker to array surface; dsDNA, one strand shown
In all, about 68,000 sequences were measured (“fluorescence intensity (a.u.)”: median about 9,100, highest 2% from about 16,000 on). Many of the other results were omitted from the sample, so the highest values are more common in it than they were.
EXPERIMENTAL_ENDPOINT: binding signal

TGTTATTGTCCTGTATCAGTCCCGTGCTGTTTTTCTCTTTCGGAGTCACCTAGTGCAG : 13000 fluorescence intensity (a.u.)
CTTGGCTTGGTTTGGTTTGGTGTTTGATCACGCGGTGGTGCGGAGTCACCTAGTGCAG : 20800 fluorescence intensity (a.u.)
CGGTTTCGTTTGAGATTTTTTTTTGGTGGTTTTGATTTCGCGGAGTCACCTAGTGCAG : 8640 fluorescence intensity (a.u.)
GGCGAGTGGCGGATTTGTTTTTGGTTTGTTTTTGAGTTTGCGGAGTCACCTAGTGCAG : 9060 fluorescence intensity (a.u.)
AGTCCGTGCTGCAGATCTGCTCTTTTCTCTTCGTTTAACTCGGAGTCACCTAGTGCAG : 10300 fluorescence intensity (a.u.)
CTCCATCCGTTTTAAAATGTTTGACACCGTTGACTTTTTACGGAGTCACCTAGTGCAG : 27300 fluorescence intensity (a.u.)
TATCTAATAATTGGATGGTTACAACCAAATACTTCTACATCGGAGTCACCTAGTGCAG : 9870 fluorescence intensity (a.u.)
TGTTAAAACACCCTTTTTCACTTTTCTAGCCGTTCACTTTCGGAGTCACCTAGTGCAG : 9280 fluorescence intensity (a.u.)
CTTTTCTAGCCGTTCACTTTTTTTTACCACAGTAGTTTTTCGGAGTCACCTAGTGCAG : 16600 fluorescence intensity (a.u.)
GTGATCCGGTGCCCTCTGACCCGCAACTTCCTTTTGGCACCGGAGTCACCTAGTGCAG : 8460 fluorescence intensity (a.u.)
ACTTCTTTAGGCGTTGACTTCTCCCTTTTCCTTTACTATTCGGAGTCACCTAGTGCAG : 14800 fluorescence intensity (a.u.)
ATGCGTGCGCTCAGCCCATTCTGCTTGTATTTTCAGTACACGGAGTCACCTAGTGCAG : 11300 fluorescence intensity (a.u.)
AGATTATTTTGCTCGATTTTGAATTTTTCATGCATCCGTCCGGAGTCACCTAGTGCAG : 9150 fluorescence intensity (a.u.)
TACTGCCGTCGCCGTCGCCCCACGTTTCCTTCTCCAGTTTCGGAGTCACCTAGTGCAG : 8300 fluorescence intensity (a.u.)
AGTTTTCTTTGTTCACCTACCGTTTTTTTAGCACGTAGTTCGGAGTCACCTAGTGCAG : 10500 fluorescence intensity (a.u.)
CGGTGGACTGGTGGTTTTTGCGGGGTTGCAGAATTTGGTGCGGAGTCACCTAGTGCAG : 9390 fluorescence intensity (a.u.)
ACGTGTCCTTCTCTCTTTTTTTCTTTTTCGTTTTCTTCTCCGGAGTCACCTAGTGCAG : 8280 fluorescence intensity (a.u.)
CGGTGGTGGTGGTGGTGCCTTGGCTAGTTTGGCCGGCGCGCGGAGTCACCTAGTGCAG : 14300 fluorescence intensity (a.u.)
GATAGTTGAGGGGTCGAGATTTTTGGTATTGCGGATTGGGCGGAGTCACCTAGTGCAG : 10400 fluorescence intensity (a.u.)

---

Target: OsWRKY34 (Oryza sativa, UniProt Q0JBA9 1-250)
Experiment: protein-binding microarray (RPBM); PBS, 2% BSA, 51.3 ng/ul salmon testes DNA, 50 uM zinc acetate, 200 nM TF, 25 C, 1 h; high values mean tight binding
Conditions: protein: recombinant; tags: N-terminal polyhistidine and DsRed monomer fusion (pET32a); label: CyDye5-dUTP incorporated in the synthesized complementary strand; 3' TTTTT single-stranded linker to array surface; dsDNA, one strand shown
The full ranking holds about 68,000 sequences; the median of “fluorescence intensity (a.u.)” is about 9,100, and the highest 2% start at about 16,000. For the sample, the highest values were picked, then their nearest neighbours and some sequences at random.
EXPERIMENTAL_ENDPOINT: binding signal

CTCTCTCCGTATTATAATGTATGATGCCGTTGACTTTTTGCGGAGTCACCTAGTGCAG : 35200 fluorescence intensity (a.u.)
GATTTTTTCGGACTTGGTCTCGGTCTTTTTGTTTGGTTATCGGAGTCACCTAGTGCAG : 10200 fluorescence intensity (a.u.)
AGCCAGTTTTCTCCACCCTCGTTTTCCGCGCACATGTTTTCGGAGTCACCTAGTGCAG : 17600 fluorescence intensity (a.u.)
TCCCTAAATGTTTGACACCGTTGACCTTTTTAAAACATTTCGGAGTCACCTAGTGCAG : 17800 fluorescence intensity (a.u.)
TCATAATGCATCAATCTATTACTTTAGCTATCTATTTATACGGAGTCACCTAGTGCAG : 9530 fluorescence intensity (a.u.)
CCCGTGTCTTGTGTGTTTCCATTCTCGCGAACCTTCCACACGGAGTCACCTAGTGCAG : 9910 fluorescence intensity (a.u.)
GCAATTATTAATGTACCGCTCCGTTTTCATTTTTGGGTTGCGGAGTCACCTAGTGCAG : 8630 fluorescence intensity (a.u.)
TTTTTTTATTCGTGTCTGAAAATCATTTCCGATATCCGGTCGGAGTCACCTAGTGCAG : 8470 fluorescence intensity (a.u.)
AGATGACTCCGTTGACTTTTAAACACATGTTTGATAATTCCGGAGTCACCTAGTGCAG : 16200 fluorescence intensity (a.u.)
ACGACGACGACGACGACGCAACCCCGCGGCGCGCGCCGGCCGGAGTCACCTAGTGCAG : 8430 fluorescence intensity (a.u.)
TGTTCTTGTTTGTGTTTTCTTCTTCGTCTCCGGCGACGGCCGGAGTCACCTAGTGCAG : 10000 fluorescence intensity (a.u.)
ATTTTAATATTTGACGCCGTTGACTTTTTGTATGTTTGACCGGAGTCACCTAGTGCAG : 42500 fluorescence intensity (a.u.)
GCCTCGCCCTCGCGTCGTCACCTCTCGCCATGGCCCACTACGGAGTCACCTAGTGCAG : 9950 fluorescence intensity (a.u.)
CTCTCTCTCTCCTCGCGTGACTCGCGCGTGCCCTCGCCGCCGGAGTCACCTAGTGCAG : 8130 fluorescence intensity (a.u.)
AAACAGACCCTTAATATGCTATATTTGTCTCCAATAAAACCGGAGTCACCTAGTGCAG : 8480 fluorescence intensity (a.u.)
CCGGGACGTGTGCCGCCGCTTAAGCCCGCTCTTTATACGTCGGAGTCACCTAGTGCAG : 9690 fluorescence intensity (a.u.)
CTCTCTCTTCTTCTTCGTGTTGTTGTTTCTCTCTCTGTCTCGGAGTCACCTAGTGCAG : 11700 fluorescence intensity (a.u.)
TCCGTATTTTAATGTATGACGCTGTTGACTTTCGACCTACCGGAGTCACCTAGTGCAG : 13900 fluorescence intensity (a.u.)
CTTATCTCATTTTATCTCGGTTTTTGTTAACTTGTTTTTTCGGAGTCACCTAGTGCAG : 18200 fluorescence intensity (a.u.)
CTGCTCGGAGCACACACAACCACCACTCACCACCAACATGCGGAGTCACCTAGTGCAG : 9280 fluorescence intensity (a.u.)
TCCCTCTCTCTCTCTCTCTTCGTTTCCGCGCGCGCGCGCGCGGAGTCACCTAGTGCAG : 9340 fluorescence intensity (a.u.)
GCAACTGCACATGTGCTTATTTAGTTTCTGCATTGGTCAACGGAGTCACCTAGTGCAG : 12200 fluorescence intensity (a.u.)
CCCACCGTTTCCAAATGTTTGACGCCGTTGACTTTTTATCCGGAGTCACCTAGTGCAG : 31900 fluorescence intensity (a.u.)
TTCCCTAAATGTTTGACACCGTTGACTTTTTTTTAAACATCGGAGTCACCTAGTGCAG : 33300 fluorescence intensity (a.u.)
ATTGTTCATTTGTCGTTCCATTACATGTAACTTCACTTCACGGAGTCACCTAGTGCAG : 17000 fluorescence intensity (a.u.)
GTTCCAGCCGCGTTTCCTCTCGCGGCGGCCTCGCCATTTCCGGAGTCACCTAGTGCAG : 9070 fluorescence intensity (a.u.)
CTTCGTGTTCGTCGTGGTCTCTTGTTTCTTCTTCTTCTTCCGGAGTCACCTAGTGCAG : 22000 fluorescence intensity (a.u.)
CTAAATGTTTGACGCCGTTGACTTTTTAAATATGTTTGACCGGAGTCACCTAGTGCAG : 32300 fluorescence intensity (a.u.)
TTTTATATCCCTCACCGTACGATCCAACGTTCCGATTTCTCGGAGTCACCTAGTGCAG : 8890 fluorescence intensity (a.u.)
TCTTACTCTCTCCATCCCAAAATGTTTGACGCCGTTGACTCGGAGTCACCTAGTGCAG : 13400 fluorescence intensity (a.u.)
ATTGCAGCCTTCGCCTCCTTTCCTTCAGGTACACATATTGCGGAGTCACCTAGTGCAG : 9850 fluorescence intensity (a.u.)
TCCTCGCGACCTTAATTTACTCCTCCAATGGCCGCCGCTGCGGAGTCACCTAGTGCAG : 8600 fluorescence intensity (a.u.)
ATAATCTCCACATGCATCGTCGCTGTATTTTTTGGTTTCACGGAGTCACCTAGTGCAG : 8510 fluorescence intensity (a.u.)
CCTAAATGTTTGACTCCGTTGACTTTTTTAAACATGTCTGCGGAGTCACCTAGTGCAG : 26100 fluorescence intensity (a.u.)
TGTTTCTATCTCGTATCTTCTCTTCCAAGCATGTATTTCCCGGAGTCACCTAGTGCAG : 8650 fluorescence intensity (a.u.)
GCCACCTTTTGTTCCGCAACCGCAATGATTTCTTCTTCTTCGGAGTCACCTAGTGCAG : 14800 fluorescence intensity (a.u.)
CTCCCTCCATCCCAAAATGTTTGACGCCGTTGACTTTTTACGGAGTCACCTAGTGCAG : 15900 fluorescence intensity (a.u.)
